Assay: refractive index (Na D-line) (dimensionless); xn = mol fraction of the nth substance listed
Conditions: 298.15 K; 101.32 kPa; Liquid; x2 = 0.8
Catalogue of compounds with associated refractive index
Answer with the value's number alone.

Previously resolved entries follow.
- COMPOUND: "CCCCCl [1-chlorobutane] + CCCCO"
  refractive index: 1.3977
- COMPOUND: "CCCCCl [1-chlorobutane] + CO"
  refractive index: 1.3529
- COMPOUND: "CCCCCl [1-chlorobutane] + CCO"
  refractive index: 1.3711

For the next question, use this compound.
CCCCCl [1-chlorobutane] + CCCO has a reported refractive index of 1.387

###

Experiment: xn = mol fraction of the nth substance listed
Conditions: 288.15 K; 101.32 kPa; Liquid; x2 = 0.8
± gives the expanded uncertainty stated by the source.
Overview of recorded viscosity for various compounds
Give me the value, and tack the unit on after it.

viscosity for CCCCCl [1-chlorobutane] + CCCCO is 1.979 ± 0.023 mPa·s

# viscosity of CCCCCl [1-chlorobutane] + CO = 0.581 ± 0.009 mPa·s

viscosity reported for this compound CCCCCl [1-chlorobutane] + CCCO : 1.503 ± 0.018 mPa·s

Record CCCCCl [1-chlorobutane] + CCO . Reported viscosity: 0.932 ± 0.012 mPa·s

###

Assay: xn = mol fraction of the nth substance listed
Details: 288.15 K; 101.32 kPa; Liquid; x2 = 0.4
VALUE_TYPE: viscosity (mPa·s)
Expressed in mPa·s, but write only the number.

Study these solved cases before continuing.
- COMPOUND: "CCCCCl [1-chlorobutane] + CCCCO"
  VALUE_MEASURED: 0.781
- COMPOUND: "CCCCCl [1-chlorobutane] + CCO"
  VALUE_MEASURED: 0.566
- COMPOUND: "CCCCCl [1-chlorobutane] + CO"
  VALUE_MEASURED: 0.496

Note: attention shifts to another entry.
get_value(item= CCCCCl [1-chlorobutane] + CCCO , readout=viscosity) returns 0.672

###

Assay: xn = mol fraction of the nth substance listed
Conditions: 308.15 K; 101.32 kPa; Liquid; x2 = 0.95
VALUE_TYPE: viscosity (mPa·s)
Give the quantity in mPa·s, number only.

Example results:
- MOLECULE: "CCCCCl [1-chlorobutane] + CCCCO"
  UNIT_LABEL: "mPa·s"
  VALUE_MEASURED: 1.784
- MOLECULE: "CCCCCl [1-chlorobutane] + CCO"
  UNIT_LABEL: "mPa·s"
  VALUE_MEASURED: 0.839
- MOLECULE: "CCCCCl [1-chlorobutane] + CCCO"
  UNIT_LABEL: "mPa·s"
  VALUE_MEASURED: 1.375

Value of measured viscosity for the entry CCCCCl [1-chlorobutane] + CO : 0.467

###

Listed here are compounds together with their documented refractive index.
Test: refractive index (Na D-line) (dimensionless); xn = mol fraction of the nth substance listed
Details: 298.15 K; 101.32 kPa; Liquid; x2 = 0.3
# print the numeric value only

- COMPOUND: "CCCCCl [1-chlorobutane] + CCCO"
  VALUE_MEASURED: 1.3948
- COMPOUND: "CCCCCl [1-chlorobutane] + CO"
  VALUE_MEASURED: 1.3885
- COMPOUND: "CCCCCl [1-chlorobutane] + CCCCO"
  VALUE_MEASURED: 1.3982

Now look at this one.
For reference, reported refractive index for CCCCCl [1-chlorobutane] + CCO stands at 1.3907

Value source: the NIST ThermoML archive (doi:10.1021/je030226s)
